Values from ChEMBL document CHEMBL3507680

Experiment: Human HepG2 cell viability assay in 384 well format
Type: toxicity, cell-based
Design: dose 125 nL, time 70.5 hour; concentration not given beside the values
Details: HepG2 cells, read-out: Inhibition
Measured Quantity: cytotoxicity at 70.5 h (%)
# number only, unit % dropped from output

{"columns": ["Compound", "cytotoxicity at 70.5 h [%]"],
 "data": [
  ["CCOc1ccc(SCCS(=O)(=O)CC)cc1", -6.32],
  ["N#Cc1ccc(N2CCN(C(=O)c3cc(C4CC4)[nH]n3)CC2)c(F)c1", -8.69],
  ["CN(Cc1cn(CC2CCNCC2)nn1)CC1CCCCO1 (stereo unspecified)", -8.15],
  ["CN(C)S(=O)(=O)N1C[C@H]2CCC[C@@]2(COCC2CC2)C1", 16.4]
]}

Qu. I am curious: what cytotoxicity at 70.5 h value has been reported for CCOC(=O)C(C)Nc1ccc(CCN2CCOCC2)cc1 (stereo unspecified) ?
Ans. -16.3

Qu. And for COC(=O)N1CCCN(Cn2nc(C)c(Br)c2C)CC1 ?
Ans. 31.2

====

Assay: Human HepG2 cell viability assay in 384 well format
Format: toxicity, cell-based
Parameters: dose 125 nL, time 70.5 hour; concentration not given beside the values
Settings: HepG2 cells, read-out: Inhibition
Measured Quantity: cytotoxicity at 70.5 h
Please give the number followed by its unit.

Illustrative cases are given below, each with its answer.
{"columns": ["Compound", "cytotoxicity at 70.5 h"],
 "data": [
  ["COc1c(C2CCCN2Cc2c(C)noc2C)c(C)nn1C (centres undefined)", "-5.56%"],
  ["CN(C)[C@@H]1CCN(C(=O)C2CCOCC2)[C@H]1Cc1ccncc1", "6.4%"],
  ["CCN1CCC(CC(=O)NCC(O)c2ccc3ccccc3c2)CC1 (centres undefined)", "9.43%"],
  ["Cc1nnc(NC(=O)NC(C)Cn2cccn2)s1 (centres undefined)", "-7.53%"],
  ["NC(=O)c1ccc(CN2CCC(N3CCCC3)CC2)cc1", "-2.01%"]
]}

Qu. I am curious: what cytotoxicity at 70.5 h value has been reported for Cc1cnc(C(=O)NCc2ccnc(N(C)C)c2)cn1 ?
Ans. -2.67%

Qu. And for Cc1noc(C(C)C)c1C(=O)NCC(c1cccs1)N(C)C (centres undefined) ?
Ans. -8.63%

Qu. And for CN(C)C(CNC(=O)c1ncoc1-c1ccccc1)c1ccsc1 (centres undefined) ?
Ans. -11.1%

Qu. And for CCc1ccc(CN2CCC(=O)N(CC3CC3)C(C(C)C)C2)nc1 (centres undefined) ?
Ans. -11.4%

Qu. And for CN(CC(=O)NS(=O)(=O)c1ccc(F)cc1)Cc1ccccc1 ?
Ans. -3.97%

====

Assay: Human HepG2 cell viability assay in 384 well format
Assay type: toxicity, cell-based
Design: dose 125 nL, time 70.5 hour; concentration not given beside the values
Conditions: HepG2 cells, read-out: Inhibition
Below, each of the molecules is paired with its reported cytotoxicity at 70.5 h value.
# number only, unit % dropped from output

{"columns": ["Molecule", "Measured Quantity", "Assay Value"],
 "data": [
  ["O=C(c1cocn1)N1CCC2(CC1)CC(Oc1ccccn1)CO2 (configuration not stated)", "cytotoxicity at 70.5 h", -8.48],
  ["NC(=O)c1cn(CC2CC2)c(C2CC2)n1", "cytotoxicity at 70.5 h", -7.32],
  ["OCCN1CCC(F)(F)C2(CCN(c3cnccn3)C2)C1 (configuration not stated)", "cytotoxicity at 70.5 h", -5.87],
  ["O=C1CCCN1C1CCCN(CCOc2ccc(F)cc2)C1 (configuration not stated)", "cytotoxicity at 70.5 h", -6.91],
  ["Cc1nc(CN2CCC3(CC2)NC(=O)CC3c2ccncc2)cs1 (configuration not stated)", "cytotoxicity at 70.5 h", -5.12],
  ["CCCN(CCC)Cc1nnsc1Cl", "cytotoxicity at 70.5 h", -13.7]
]}

Lab note: next molecule to report on.
Qu. I am curious: what cytotoxicity at 70.5 h value has been reported for COc1cc(C)sc1C(=O)NCCNc1ccccc1 ?
Ans. 11.2

====

Test: Human HepG2 cell viability assay in 384 well format
Type: toxicity, cell-based
Parameters: dose 125 nL, time 70.5 hour; concentration not given beside the values
Details: HepG2 cells, read-out: Inhibition
Measured Quantity: cytotoxicity at 70.5 h (%)
# number only, unit % dropped from output

{"columns": ["Compound", "Measured Quantity", "Assay Value"],
 "data": [
  ["COC1CCN(S(=O)(=O)N2CCCC(c3cccc(C(=O)O)c3)C2)CC1 (centres undefined)", "cytotoxicity at 70.5 h", -9.91],
  ["CCC(C)N(Cc1ccncc1)Cc1cccc(Cn2cccn2)c1 (centres undefined)", "cytotoxicity at 70.5 h", -6.76]
]}

Qu. I am curious: what cytotoxicity at 70.5 h value has been reported for CCn1cnnc1C1CCN(C(=O)c2cccc(C)c2C)CC1 ?
Ans. 30.1

Qu. And for CC(C)CN1CC2(CCN(C(=O)c3cnccn3)CC2)CC1=O ?
Ans. -15

====

Below, each of the compounds is paired with its reported cytotoxicity at 70.5 h value.
Experiment: Human HepG2 cell viability assay in 384 well format
Assay type: toxicity, cell-based
Parameters: dose 125 nL, time 70.5 hour; concentration not given beside the values
Details: HepG2 cells, read-out: Inhibition
# number only, unit % dropped from output

Illustrative cases are given below, each with its answer.
{"columns": ["Compound", "Unit Tag", "Assay Value"],
 "data": [
  ["Cc1nc(C)n(CC2CCCN2CC(=O)Nc2ccnn2C(C)C)n1 (stereo unspecified)", "%", 17],
  ["Cc1nc(C)c(CN2CCC(N(C)Cc3noc(C4CC4)n3)C2)s1 (stereo unspecified)", "%", 21.6],
  ["CCOCC1CN(c2ccc(C)nn2)Cc2cnn(CC)c21 (stereo unspecified)", "%", -5.73]
]}

Qu. I am curious: what cytotoxicity at 70.5 h value has been reported for O=C(CCn1cnc2cc(F)c(F)cc21)N1CCN2CCCCC2C1 (stereo unspecified) ?
Ans. -1.04

Qu. And for O=C(C(c1ccccc1)S(=O)(=O)c1ccccc1)N1CCCCC1 (stereo unspecified) ?
Ans. 3.14

Qu. And for O=C(CCc1ccccc1Br)N1CC(S(=O)(=O)C2CCCCC2)C1 ?
Ans. -5.63

Qu. And for CNC(=O)c1cc2c(nc1NCC(C)C)CCN(S(=O)(=O)N(C)C)CC2 ?
Ans. -5.52

Qu. And for O=C(NCCn1ccnc1)N1CCN(Cc2ccsc2)CC1 ?
Ans. 9.21

====

Assay: Human HepG2 cell viability assay in 384 well format
Type: toxicity, cell-based
Design: dose 125 nL, time 70.5 hour; concentration not given beside the values
Conditions: HepG2 cells, read-out: Inhibition
Below, each of the compounds is paired with its reported cytotoxicity at 70.5 h value.
# number only, unit % dropped from output

Illustrative cases are given below, each with its answer.
{"columns": ["Compound", "cytotoxicity at 70.5 h [%]"],
 "data": [
  ["CCN(CC1CCOCC1)C(=O)Cn1cccc(C(F)(F)F)c1=O", -7.19],
  ["O=C1CC2(CCN(Cc3ccc4cccc(O)c4n3)CC2)CN1", -5.81],
  ["O=C(c1cocn1)N1C[C@@H]2COC[C@]2(COc2cccnc2)C1", -4.92]
]}

Lab note: next compound to report on.
Qu. I am curious: what cytotoxicity at 70.5 h value has been reported for COCCNC(=O)NC(=O)CNc1c(F)cccc1N1CCCC1 ?
Ans. -16.6

====

Assay: Human HepG2 cell viability assay in 384 well format
Type: toxicity, cell-based
Set-up: dose 125 nL, time 70.5 hour; concentration not given beside the values
Conditions: HepG2 cells, read-out: Inhibition
Below, each of the compounds is paired with its reported cytotoxicity at 70.5 h value.

Illustrative cases are given below, each with its answer.
{"columns": ["Compound", "cytotoxicity at 70.5 h"],
 "data": [
  ["CSc1ncccc1C(=O)N1C[C@H]2CC[C@@H]1CN(C(=O)N(C)C)C2", "-7.79%"],
  ["Cc1nn(C)cc1C(=O)N1CCCN(C2Cc3ccccc3C2)CC1", "14.3%"],
  ["CCN1CCC(CC(=O)N2CCCCC2CCn2cccn2)CC1 (stereo unspecified)", "-11.1%"]
]}

Qu. I am curious: what cytotoxicity at 70.5 h value has been reported for COCCn1c2c(ccc1=O)CC(NCc1cnn(C)c1)CC2 (stereo unspecified) ?
Ans. 101%

Qu. And for O=C(NCc1ccccn1)NCC(O)c1ccccc1C(F)(F)F (stereo unspecified) ?
Ans. -5.77%

Qu. And for COc1ccccc1CNC(=O)CN(C)C(C)c1nccs1 (stereo unspecified) ?
Ans. -1.57%

====

Below, each of the compounds is paired with its reported cytotoxicity at 70.5 h value.
Experiment: Human HepG2 cell viability assay in 384 well format
Assay type: toxicity, cell-based
Design: dose 125 nL, time 70.5 hour; concentration not given beside the values
Conditions: HepG2 cells, read-out: Inhibition

{"columns": ["Compound", "Measured Quantity", "Assay Value"],
 "data": [
  ["O=C(c1cccnc1-n1cncn1)N1CCN(CC2CC2)CC1", "cytotoxicity at 70.5 h", "-7.39%"],
  ["Cc1ccc2c(n1)N(C)CCN(C(=O)NC1CC1)C2", "cytotoxicity at 70.5 h", "25.2%"],
  ["C=C(C)CNC1CCCN(Cc2noc(C3CC3)n2)C1 (stereo not given)", "cytotoxicity at 70.5 h", "-5.26%"]
]}

Qu. I am curious: what cytotoxicity at 70.5 h value has been reported for Cc1nc(CN2CCCC2c2[nH]ncc2C(=O)N(C)C)cs1 (stereo not given) ?
Ans. -2.79%

Qu. And for CCC(=O)Nc1ccc2c(ccn2CCOC)c1 ?
Ans. -8.06%

Qu. And for COCCNC(=O)N1CCN(C(C)C(=O)NC(C)C)CC1 (stereo not given) ?
Ans. -5.13%

Qu. And for COc1cc(N2CCn3cc(CNc4ccccn4)nc3C2)ncn1 ?
Ans. 2.02%

Qu. And for CCNC(=O)NC(=O)CSC(C)c1c(F)cccc1F (stereo not given) ?
Ans. 10.3%

Qu. And for COCCCC1(C(=O)O)CCCN(C(=O)c2ccc(Cl)cc2F)C1 (stereo not given) ?
Ans. -10.9%

Qu. And for Cc1ccc2c(c1)CCC21CCN(C(=O)CO)CC1 ?
Ans. -8.48%

Qu. And for Cc1cc(CN2CC[C@H]3[C@H]2CCN3S(C)(=O)=O)oc1C ?
Ans. -8.76%

Qu. And for Cc1cc(CN(Cc2cccs2)CC2CCCO2)no1 (stereo not given) ?
Ans. -0.996%

Qu. And for Cc1cccc(CN2CCC23CCCNC3)n1 (stereo not given) ?
Ans. -9.59%
